Reference source for all entries: ChEMBL document CHEMBL4673282

MEASUREMENT_PROTOCOL: Half life in rat liver microsomes at 1 uM measured up to 60 mins in presence of NADPH generating system
STATED_CONDITIONS: 1 h
Recorded t1/2 values for a group of molecules are listed next.

CN1CCN(CC(=O)NCCCn2c(=O)c3cc(F)ccc3n3c(=S)[nH]nc23)CC1 = > 30 min
O=C(Cc1ccccc1C(F)(F)F)NCCCn1c(=O)c2cc(F)ccc2n2c(=S)[nH]nc12 = 3.7 min

Now turn to the next molecule.
Input: Using the record for CCCCn1c(=O)c2ccccc2n2c(S)nnc12 , report its t1/2.
Output: > 30 min

====

MEASUREMENT_PROTOCOL: Half life in rat liver microsomes at 1 uM measured up to 60 mins in presence of NADPH generating system
STATED_CONDITIONS: 1 h
PROPERTY_MEASURED: t1/2

// solved cases for t1/2 follow
CC(C)(C)OC(=O)N1CCN(CCn2c(=O)c3cc(F)ccc3n3c(=S)[nH]nc23)CC1 = 26.3 min
O=c1c2cc(F)ccc2n2cnnc2n1CCc1ccccc1 = 11.8 min
CCCn1c(=O)c2cc(F)ccc2n2c(=S)[nH]nc12 = > 30 min

Input: Using the record for CS(=O)(=O)NCCCn1c(=O)c2cc(F)ccc2n2c(=S)[nH]nc12 , report its t1/2.
Output: > 30 min

Input: Same lookup for CC(C)(C)OC(=O)CC[C@H](N)C(=O)NCCOCCOCCOCCOCCC(=O)NCCCn1c(=O)c2cc(F)ccc2n2c(=S)[nH]nc12 , please.
Output: > 30 min

Input: Same lookup for CC(C)(C)OC(=O)CC[C@@H](NC(=O)OC(C)(C)C)C(=O)NCCCn1c(=O)c2cc(F)ccc2n2c(=S)[nH]nc12 , please.
Output: 25.1 min

Input: Same lookup for CN(C)CCn1c(=O)c2cc(F)ccc2n2c(=S)[nH]nc12 , please.
Output: > 30 min

====

MEASUREMENT_PROTOCOL: in vitro
STATED_CONDITIONS: PAMPA
Description: Permeability of the compound by PAMPA
If the reported Papp equals or exceeds 100 ×10⁻⁶ cm/s, assign yes (1). If not, assign no (0).

See these solved cases before continuing.
CN(C)CCn1c(=O)c2cc(F)ccc2n2c(=S)[nH]nc12 = yes (1)
O=c1c2ccccc2n2c(=S)[nH]nc2n1CCC(F)(F)F = no (0)
NCCCn1c(=O)c2cc(F)ccc2n2c(=S)[nH]nc12 = no (0)
O=c1c2cc(F)ccc2n2c(=S)[nH]nc2n1CCN1CCC(F)(F)CC1 = yes (1)
O=c1c2cc(F)ccc2n2c(=S)[nH]nc2n1CCc1cccnc1 = no (0)

Input: Exam item: decide whether the reported Papp for O=c1c2cc(Cl)ccc2n2c(=S)[nH]nc2n1CCC(F)(F)F is at least 100 ×10⁻⁶ cm/s.
Output: yes (1)

Input: Same lookup for O=c1c2cc(F)ccc2n2c(=S)[nH]nc2n1CCc1ccccn1 , please.
Output: yes (1)

Input: Same lookup for O=c1c2cc(F)ccc2n2c(=S)[nH]nc2n1CCN1CCCCC1 , please.
Output: yes (1)

Input: Same lookup for O=c1c2cccc(F)c2n2c(=S)[nH]nc2n1CCc1ccccc1 , please.
Output: yes (1)

====

Recorded Papp values for a group of compounds are listed next.
MEASUREMENT_PROTOCOL: in vitro
STATED_CONDITIONS: PAMPA
Report the figure in ×10⁻⁶ cm/s without appending any unit label.

// solved cases for Papp follow
O=c1c2ccncc2n2c(=S)[nH]nc2n1CCc1ccccc1 = 202
O=c1c2ccc(F)cc2n2c(=S)[nH]nc2n1CCc1ccccc1 = 91

Input: Using the record for O=c1c2cc(F)ccc2n2c(=S)[nH]nc2n1CCC1CCC(F)(F)CC1 , report its Papp.
Output: 201

====

MEASUREMENT_PROTOCOL: Aqueous solubility of compound
Type: physicochemical
STATED_CONDITIONS: buffer
Recorded solubility values for a group of compounds are listed next.

Input: Using the record for CC(CN(C)C)n1c(=O)c2cc(F)ccc2n2c(=S)[nH]nc12 (racemic) , report its solubility.
Output: > 47 µg/mL

Input: Same lookup for O=c1c2ccccc2n2c(=O)[nH]nc2n1CCc1ccccc1 , please.
Output: < 1 µg/mL

Input: Same lookup for CC(C)(C)OC(=O)NC1CCC(C(=O)NCCCn2c(=O)c3cc(F)ccc3n3c(=S)[nH]nc23)CC1 (racemic) , please.
Output: > 77 µg/mL

====

MEASUREMENT_PROTOCOL: in vitro
STATED_CONDITIONS: PAMPA
Recorded Papp values for a group of compounds are listed next.

O=C(O)CCC(=O)NCCCn1c(=O)c2cc(F)ccc2n2c(=S)[nH]nc12 = < 1 ×10⁻⁶ cm/s
O=C(Cc1ccncc1)NCCCn1c(=O)c2cc(F)ccc2n2c(=S)[nH]nc12 = < 1 ×10⁻⁶ cm/s

Input: Using the record for O=C(CN1CCOCC1)NCCCn1c(=O)c2cc(F)ccc2n2c(=S)[nH]nc12 , report its Papp.
Output: < 1 ×10⁻⁶ cm/s

====

MEASUREMENT_PROTOCOL: Half life in rat liver microsomes at 1 uM measured up to 60 mins in presence of NADPH generating system
STATED_CONDITIONS: 1 h
PROPERTY_MEASURED: t1/2

CNC(=S)N1CN(CCc2ccccc2)C(=O)c2cc(F)ccc21 = 2.2 min

Input: Using the record for CN(C)c1ccc2c(c1)c(=O)n(CCc1ccccc1)c1n[nH]c(=S)n21 , report its t1/2.
Output: 13.3 min

Input: Same lookup for CC(C)(C)OC(=O)NCCOCCOCCOCCC(=O)NCCCn1c(=O)c2cc(F)ccc2n2c(=S)[nH]nc12 , please.
Output: 27.9 min
